Readings of pIC50 for the listed compounds
Biological target: recombinant human MMP-12 catalytic domain (Homo sapiens (Human), UniProt P39900)
Sequence (P39900 106-268): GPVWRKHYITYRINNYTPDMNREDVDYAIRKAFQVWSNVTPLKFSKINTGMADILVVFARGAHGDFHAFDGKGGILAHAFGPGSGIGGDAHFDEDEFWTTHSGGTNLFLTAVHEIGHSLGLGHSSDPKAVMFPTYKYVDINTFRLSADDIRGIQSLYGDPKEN
Assay: MMP-12 inhibitory assay, fluorogenic substrate cleavage
Assay type: biochemical
Details: Table 1; readout at time point 30 minutes; read-out: MMP-12 IC50
pIC50: −log10 of the molar value.

As a guide, the following entries are already answered.
[[record]]
compound = "Cc1cc(/C=C/c2ccc(Sc3ccsc3C3NC(=O)NC3=O)cc2)ccn1 (stereo not drawn)"
experimentalsystem = "recombinant human MMP-12 catalytic domain (Homo sapiens (Human), UniProt P39900)"
measurement = "> 9.00"

[[record]]
compound = "Cc1cc(/C=C/c2ccc(Sc3ccncc3C3NC(=O)NC3=O)cc2)ccn1 (stereo not drawn)"
experimentalsystem = "recombinant human MMP-12 catalytic domain (Homo sapiens (Human), UniProt P39900)"
measurement = "> 9.00"

[[record]]
compound = "Cc1cc(C#Cc2ccc(Sc3ccoc3C3NC(=O)NC3=O)cc2)ccn1 (stereo not drawn)"
experimentalsystem = "recombinant human MMP-12 catalytic domain (Homo sapiens (Human), UniProt P39900)"
measurement = "7.00 to 8.00"


Noted pIC50 for Cc1cc(/C=C/c2ccc(Oc3ccncc3C3NC(=O)NC3=O)cc2)ccn1 (stereo not drawn) , tested on recombinant human MMP-12 catalytic domain (Homo sapiens (Human), UniProt P39900): > 9.00

Noted pIC50 for CCC1(c2cnccc2Sc2ccc(/C=C/c3ccnc(C)c3)cc2)NC(=O)NC1=O (stereo not drawn) , tested on recombinant human MMP-12 catalytic domain (Homo sapiens (Human), UniProt P39900): > 9.00

Noted pIC50 for Cc1cc(C#Cc2ccc(Sc3ccncc3C3NC(=O)NC3=O)cc2)ccn1 (stereo not drawn) , tested on recombinant human MMP-12 catalytic domain (Homo sapiens (Human), UniProt P39900): 8.00 to 9.00

Noted pIC50 for Cc1cc(C#Cc2ccc(Oc3ccncc3C3NC(=O)NC3=O)cc2)ccn1 (stereo not drawn) , tested on recombinant human MMP-12 catalytic domain (Homo sapiens (Human), UniProt P39900): 8.00 to 9.00

Noted pIC50 for Cc1cc(C#Cc2ccc(Sc3ccsc3C3NC(=O)NC3=O)cc2)ccn1 (stereo not drawn) , tested on recombinant human MMP-12 catalytic domain (Homo sapiens (Human), UniProt P39900): > 9.00

Noted pIC50 for Cc1cc(C#Cc2ccc(Sc3cnn(C)c3C3NC(=O)NC3=O)cc2)ccn1 (stereo not drawn) , tested on recombinant human MMP-12 catalytic domain (Homo sapiens (Human), UniProt P39900): > 9.00

Noted pIC50 for CCC1(c2occc2Sc2ccc(/C=C/c3ccnc(C)c3)cc2)NC(=O)NC1=O (stereo not drawn) , tested on recombinant human MMP-12 catalytic domain (Homo sapiens (Human), UniProt P39900): > 9.00

Noted pIC50 for Cc1cc(/C=C/c2ccc(Sc3cnn(C)c3C3NC(=O)NC3=O)cc2)ccn1 (stereo not drawn) , tested on recombinant human MMP-12 catalytic domain (Homo sapiens (Human), UniProt P39900): > 9.00

Noted pIC50 for Cc1cc(/C=C/c2ccc(Sc3ccoc3C3NC(=O)NC3=O)cc2)ccn1 (stereo not drawn) , tested on recombinant human MMP-12 catalytic domain (Homo sapiens (Human), UniProt P39900): > 9.00

This collection of values is drawn from patent US11673884B2.
